Origin of the recorded values: patent EP2970434B1

target: T1, active site-blocked human plasmin (human, UniProt P00747 97-810, limits assumed, active site blocked with a chloromethylketone inhibitor (e.g., D-Val-Phe-Lys chloromethylketone dihydrochloride)); experiment: SPR (BiaCore), active site-blocked plasmin on CM5 chip, polypeptide as analyte at 1-12 µM
T1 construct: also called immobilized plasmin
T1 sequence (P00747 97-810 limits assumed): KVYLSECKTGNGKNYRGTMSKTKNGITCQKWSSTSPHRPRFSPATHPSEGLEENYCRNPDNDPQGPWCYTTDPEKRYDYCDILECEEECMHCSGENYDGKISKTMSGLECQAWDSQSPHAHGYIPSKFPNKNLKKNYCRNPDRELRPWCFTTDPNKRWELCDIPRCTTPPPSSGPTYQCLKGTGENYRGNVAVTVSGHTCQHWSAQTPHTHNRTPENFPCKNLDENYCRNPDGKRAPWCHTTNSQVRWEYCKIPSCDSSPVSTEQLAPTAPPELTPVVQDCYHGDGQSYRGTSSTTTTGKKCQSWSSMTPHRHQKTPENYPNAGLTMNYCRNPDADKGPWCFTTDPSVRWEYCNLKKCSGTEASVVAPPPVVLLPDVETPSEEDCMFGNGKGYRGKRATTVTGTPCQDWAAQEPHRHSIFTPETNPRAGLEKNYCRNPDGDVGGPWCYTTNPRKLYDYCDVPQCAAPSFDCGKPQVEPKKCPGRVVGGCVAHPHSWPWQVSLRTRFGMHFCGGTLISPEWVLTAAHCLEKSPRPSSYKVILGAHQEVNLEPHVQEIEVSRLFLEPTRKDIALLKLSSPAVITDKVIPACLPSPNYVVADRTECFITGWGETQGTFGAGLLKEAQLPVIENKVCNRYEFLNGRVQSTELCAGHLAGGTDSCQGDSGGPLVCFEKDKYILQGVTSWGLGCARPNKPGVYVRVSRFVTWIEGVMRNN
pKd: −log10 of the molar value.
QUANTITY NAME: pKd

plasmin-inhibiting polypeptide comprising the amino acid sequence set forth in SEQ ID NO:6 (designed binder, Purified recombinant polypeptide; also called 63-residue) NAEICLLPLDYGPCRARLLRYYYDRYTQSCRQFLYGGCEGNANNFYTWEACDDACWRIEKVPK	6.54
